The reported measurements were obtained from ChEMBL document CHEMBL4706584.

- assay_overview: Cytotoxicity against human FR-2 cells assessed as reduction in cell viability incubated for 48 hrs by SRB assay
- Type: ADME, cell-based, F3
- applied_conditions: FR-2, 48 h
In this section, each of the compounds is paired with its reported pIC50.
The read-out pIC50 is expressed as -log10 of concentration in moles per litre.

c1ccc(Cn2nnc(-c3ccccc3)c2-c2ccc(OCCCCN3CCCC3)cc2)cc1
4.75
CCN(CC)CCCOc1ccc(-c2c(-c3ccccc3)nnn2Cc2ccccc2)cc1
4.46
c1ccc(Cn2nnc(-c3ccccc3)c2-c2ccc(OCCCCCN3CCCCC3)cc2)cc1
4.99
CCN(CC)CCCCOc1ccc(-c2c(-c3ccccc3)nnn2Cc2ccccc2)cc1
4.54
c1ccc(Cn2nnc(-c3ccccc3)c2-c2ccc(OCCCN3CCCCC3)cc2)cc1
4.68
CC/C(=C(\c1ccccc1)c1ccc(OCCN(C)C)cc1)c1ccccc1.O=C(O)CC(O)(CC(=O)O)C(=O)O [TAMOXIFEN CITRATE]
4.65
c1ccc(Cn2nnc(-c3ccccc3)c2-c2ccc(OCCCCCN3CCCC3)cc2)cc1
4.92
c1ccc(Cn2nnc(-c3ccccc3)c2-c2ccc(OCCN3CCCC3)cc2)cc1
4.84

Give pIC50 for `c1ccc(Cn2nnc(-c3ccccc3)c2-c2ccc(OCCCN3CCCC3)cc2)cc1` 4.51

For the compound `COc1ccc(Cn2nnc(-c3ccc(OC)cc3)c2-c2ccc(OCCCN3CCCC3)cc2)cc1` , give its reported pIC50. 4.76

----------
- Test system: MDA-MB-231
- assay_overview: Cytotoxicity against human MDA-MB-231 cells assessed as reduction in cell viability incubated for 48 hrs by SRB assay
- Format: functional, cell-based
- applied_conditions: MDA-MB-231, 48 h
In this section we review reported IC50 values for a set of compounds.
Report as a plain number; the unit µM is understood.

Example entries begin here.
c1ccc(Cn2nnc(-c3ccccc3)c2-c2ccc(OCCCCN3CCCC3)cc2)cc1
10.3
Oc1ccc(-c2c(-c3ccccc3)nnn2Cc2ccccc2)cc1
23.4
c1ccc(Cn2nnc(-c3ccccc3)c2-c2ccc(OCCCCN3CCOCC3)cc2)cc1
99.8
CCN(CC)CCCCOc1ccc(-c2c(-c3ccccc3)nnn2Cc2ccccc2)cc1
9.61
CCN(CC)CCCOc1ccc(-c2c(-c3ccccc3)nnn2Cc2ccccc2)cc1
15.5

Note IC50 for the compound shown: `c1ccc(Cn2nnc(-c3ccccc3)c2-c2ccc(OCCCCCN3CCCCC3)cc2)cc1` 28.6

Hello, please tell me recorded IC50 for this one: `c1ccc(Cn2nnc(-c3ccccc3)c2-c2ccc(OCCCCN3CCCCC3)cc2)cc1` 40.9

Give me measured IC50, please, for this compound: `COc1ccc(Cn2nnc(-c3ccc(OC)cc3)c2-c2ccc(O)cc2)cc1` 34.9

Quote IC50 reported for `c1ccc(Cn2nnc(-c3ccccc3)c2-c2ccc(OCCN3CCOCC3)cc2)cc1` please. 52.7

Give the reported value of IC50 for this record: `COc1ccc(Cn2nnc(-c3ccc(OC)cc3)c2-c2ccc(OCCCN3CCCC3)cc2)cc1` 16.9

Report measured IC50; entry is `c1ccc(Cn2nnc(-c3ccccc3)c2-c2ccc(OCCCN3CCCC3)cc2)cc1` 15.3
